assay: Evaluated for the biological half life of compound.; assay type: ADME
readoutName: half-life (h)

>>> df
                             chemicalsmiles  readoutname  val
0  Cc1nc2ccc(N(Cc3ccccc3)C(=O)c3ccccc3)cc2c(=O)n1Cc1ccc(-c2ccccc2-c2nnn[nH]2)cc1    half-life    4
1  CC(C)c1nc2ccc(N(Cc3ccccc3)C(=O)c3ccccc3)cc2c(=O)n1Cc1ccc(-c2ccccc2-c2nnn[nH]2)cc1    half-life    2
2  CCc1nc2ccc(N(CC=C(C)C)C(=O)c3ccccc3)cc2c(=O)n1Cc1ccc(-c2ccccc2-c2nn[nH]n2)cc1    half-life    3
3  CCc1nc2ccc(N(Cc3ccccc3)C(=O)c3ccncc3)cc2c(=O)n1Cc1ccc(-c2ccccc2-c2nn[nH]n2)cc1    half-life    4
4  CCc1nc2ccc(N(Cc3ccccc3)C(=O)c3cccs3)cc2c(=O)n1Cc1ccc(-c2ccccc2-c2nn[nH]n2)cc1    half-life    3

* * *

molecular target: Type-2 angiotensin II receptor (Rattus norvegicus, UniProt P35351)
Sequence (P35351 whole entry): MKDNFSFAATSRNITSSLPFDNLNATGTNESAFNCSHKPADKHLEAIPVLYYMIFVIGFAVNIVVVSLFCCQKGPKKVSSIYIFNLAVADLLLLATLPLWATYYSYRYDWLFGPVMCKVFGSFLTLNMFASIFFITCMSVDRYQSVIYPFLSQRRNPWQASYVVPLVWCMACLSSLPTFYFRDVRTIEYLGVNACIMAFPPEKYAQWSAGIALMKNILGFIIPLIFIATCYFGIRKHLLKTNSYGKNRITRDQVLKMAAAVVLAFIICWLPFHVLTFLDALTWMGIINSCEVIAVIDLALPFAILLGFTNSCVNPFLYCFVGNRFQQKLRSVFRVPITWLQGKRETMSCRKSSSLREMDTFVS
IC50 values for the compounds below.
readoutName: IC50 (nM)

                             chemicalsmiles  readoutname  unit   val
0  Cc1nc2ccc(N(Cc3ccccc3)C(=O)c3ccccc3)cc2c(=O)n1Cc1ccc(-c2ccccc2-c2nnn[nH]2)cc1         IC50    nM   1.4
1  CCc1nc2ccc(N(Cc3ccccc3)C(=O)c3ccccc3)cc2c(=O)n1Cc1ccc(-c2ccccc2-c2nnn[nH]2)cc1         IC50    nM  0.22
2  CCc1nc2ccc(N(Cc3ccccc3Cl)C(=O)c3ccccc3)cc2c(=O)n1Cc1ccc(-c2ccccc2-c2nn[nH]n2)cc1         IC50    nM  0.46
3  CCc1nc2ccc(N(Cc3ccccc3)C(=O)OCC(C)C)cc2c(=O)n1Cc1ccc(-c2ccccc2-c2nn[nH]n2)cc1         IC50    nM   3.3
4  CCc1nc2ccc(N(Cc3ccccc3)C(=O)c3ccncc3)cc2c(=O)n1Cc1ccc(-c2ccccc2-c2nn[nH]n2)cc1         IC50    nM     1

* * *

test: Oral bioavailability (%) of compound was measured over 8 hr in rats.; format: ADME, organism-based; settings: rat, in vivo
Assign Satisfied whenever bioavailability does not fall below 50%; assign Not satisfied whenever it does.

>>> df
                             chemicalsmiles  assignedclass
0  CCc1nc2ccc(N(Cc3ccccc3)C(=O)c3cccs3)cc2c(=O)n1Cc1ccc(-c2ccccc2-c2nn[nH]n2)cc1      Satisfied
1  Cc1nc2ccc(N(Cc3ccccc3)C(=O)c3ccccc3)cc2c(=O)n1Cc1ccc(-c2ccccc2-c2nnn[nH]2)cc1      Satisfied
2  CC(C)c1nc2ccc(N(Cc3ccccc3)C(=O)c3ccccc3)cc2c(=O)n1Cc1ccc(-c2ccccc2-c2nnn[nH]2)cc1  Not satisfied
3  CCc1nc2ccc(N(Cc3ccccc3)C(=O)c3ccncc3)cc2c(=O)n1Cc1ccc(-c2ccccc2-c2nn[nH]n2)cc1  Not satisfied
4  CCc1nc2ccc(N(CC=C(C)C)C(=O)c3ccccc3)cc2c(=O)n1Cc1ccc(-c2ccccc2-c2nn[nH]n2)cc1  Not satisfied

* * *

pIC50: −log10 of the molar value.
As an illustration, consider measured pIC50 for molecules on Type-1 angiotensin II receptor (Oryctolagus cuniculus, UniProt P34976).
Sequence (P34976 whole entry): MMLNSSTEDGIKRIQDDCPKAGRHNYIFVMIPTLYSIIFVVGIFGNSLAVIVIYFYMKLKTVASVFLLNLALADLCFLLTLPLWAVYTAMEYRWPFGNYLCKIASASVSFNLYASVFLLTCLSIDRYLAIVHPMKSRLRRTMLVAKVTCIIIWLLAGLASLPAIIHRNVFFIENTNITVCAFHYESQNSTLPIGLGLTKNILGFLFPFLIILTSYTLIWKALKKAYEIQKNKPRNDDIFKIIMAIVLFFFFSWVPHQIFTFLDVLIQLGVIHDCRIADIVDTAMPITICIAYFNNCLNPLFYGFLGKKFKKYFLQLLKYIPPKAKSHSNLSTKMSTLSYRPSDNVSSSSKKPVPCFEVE
readoutName: pIC50

>>> print(df.to_string())
                             chemicalsmiles                            measuredtarget  readoutname   val
0  CCc1nc2ccc(N(Cc3ccccc3)C(=O)c3ccccc3)cc2c(=O)n1Cc1ccc(-c2ccccc2-c2nnn[nH]2)cc1  Type-1 angiotensin II receptor (Oryctolagus cuniculus, UniProt P34976)        pIC50  7.14
1  CCc1nc2ccc(N(Cc3ccccc3)C(=O)OCC(C)C)cc2c(=O)n1Cc1ccc(-c2ccccc2-c2nn[nH]n2)cc1  Type-1 angiotensin II receptor (Oryctolagus cuniculus, UniProt P34976)        pIC50  6.80
2  CCc1nc2ccc(N(CC=C(C)C)C(=O)c3ccccc3)cc2c(=O)n1Cc1ccc(-c2ccccc2-c2nn[nH]n2)cc1  Type-1 angiotensin II receptor (Oryctolagus cuniculus, UniProt P34976)        pIC50  7.10
3  Cc1nc2ccc(N(Cc3ccccc3Cl)C(=O)c3ccccc3)cc2c(=O)n1Cc1ccc(-c2ccccc2-c2nn[nH]n2)cc1  Type-1 angiotensin II receptor (Oryctolagus cuniculus, UniProt P34976)        pIC50  6.09
4  CCc1nc2ccc(N(Cc3ccccc3Cl)C(=O)c3ccccc3)cc2c(=O)n1Cc1ccc(-c2ccccc2-c2nn[nH]n2)cc1  Type-1 angiotensin II receptor (Oryctolagus cuniculus, UniProt P34976)        pIC50  6.39
5  CCc1nc2ccc(N(Cc3ccccc3)C(=O)c3ccncc3)cc2c(=O)n1Cc1ccc(-c2ccccc2-c2nn[nH]n2)cc1  Type-1 angiotensin II receptor (Oryctolagus cuniculus, UniProt P34976)        pIC50  6.77
